experiment: protein stability index of a GFP-peptide fusion (yeast GPS) (PSI 1-4); higher = more stable; sorted into four equal gates, so the index is relative within each strain; conditions: ubr1∆
The label depends only on protein stability index: y if it is at least 3, n if it is smaller.

monomer_sequence	assigned_category
NLEKNYLAKLSKQLSLE [IRR1]	y
VGKFLGYVSSLVEPSKV [FAS1]	n
SKQNGIEQSITKNIPIT [SSN8]	n
SASSKEFNFTNLQAKPL [YAR002W/NUP60]	n
ETANVASLNLLQLAPGA [RPL4A]	y
DMATGSNDTTAFNDSCV [SRB8]	n
EKYAAAAPAATSAASGD [RPP0]	n
ALNSMCASIPIAIIKDT [RRP46]	n
DAMVTRTPVIISLRNNH [SMD2]	n
MSLKKCQEEVSTIEKDM [SMC2]	n
CDGDTVWDKFAVNLLNC [SSN2]	y
DANLLGAEVLIKGSKLS [COR1]	n
STVASALDTNGTSATTE [SIR4]	n
RSISWAPSIGRWYQLIA [YGL100W/SEH1]	n
QWYTLQSQLNVTLSQLV [MED8]	n
DHHPEGLSAREAVKQAA [PRE10]	n
NTTKPAFGGLNFGGGNN [YJL041W/NSP1]	y
KWSKKSMKDRAQHAVIL [RPS25A]	n
FISAARYKPKSHLWEID [RPC37]	y
YKALRGMVSHKTARGKA [RPL16A]	n
DKVDDYTPEEVDKIERE [SMC4]	n
MHRKSLRRASATVPSAP [YAR002W/NUP60]	n
TAVKQGVTSLGIKATNG [PRE8]	n
SVLISIPLDNYDDFIYL [PCI8]	n
RQKNVIHRAARPTRPDK [RPL15A]	y
QGDEALSVDDIRGAVGN [RTT102]	y
